Measured pIC50 of individual entries
- System Tested: recombinant human GCN2 protein (Homo sapiens, UniProt Q9P2K8)
- Sequence (Q9P2K8 whole entry): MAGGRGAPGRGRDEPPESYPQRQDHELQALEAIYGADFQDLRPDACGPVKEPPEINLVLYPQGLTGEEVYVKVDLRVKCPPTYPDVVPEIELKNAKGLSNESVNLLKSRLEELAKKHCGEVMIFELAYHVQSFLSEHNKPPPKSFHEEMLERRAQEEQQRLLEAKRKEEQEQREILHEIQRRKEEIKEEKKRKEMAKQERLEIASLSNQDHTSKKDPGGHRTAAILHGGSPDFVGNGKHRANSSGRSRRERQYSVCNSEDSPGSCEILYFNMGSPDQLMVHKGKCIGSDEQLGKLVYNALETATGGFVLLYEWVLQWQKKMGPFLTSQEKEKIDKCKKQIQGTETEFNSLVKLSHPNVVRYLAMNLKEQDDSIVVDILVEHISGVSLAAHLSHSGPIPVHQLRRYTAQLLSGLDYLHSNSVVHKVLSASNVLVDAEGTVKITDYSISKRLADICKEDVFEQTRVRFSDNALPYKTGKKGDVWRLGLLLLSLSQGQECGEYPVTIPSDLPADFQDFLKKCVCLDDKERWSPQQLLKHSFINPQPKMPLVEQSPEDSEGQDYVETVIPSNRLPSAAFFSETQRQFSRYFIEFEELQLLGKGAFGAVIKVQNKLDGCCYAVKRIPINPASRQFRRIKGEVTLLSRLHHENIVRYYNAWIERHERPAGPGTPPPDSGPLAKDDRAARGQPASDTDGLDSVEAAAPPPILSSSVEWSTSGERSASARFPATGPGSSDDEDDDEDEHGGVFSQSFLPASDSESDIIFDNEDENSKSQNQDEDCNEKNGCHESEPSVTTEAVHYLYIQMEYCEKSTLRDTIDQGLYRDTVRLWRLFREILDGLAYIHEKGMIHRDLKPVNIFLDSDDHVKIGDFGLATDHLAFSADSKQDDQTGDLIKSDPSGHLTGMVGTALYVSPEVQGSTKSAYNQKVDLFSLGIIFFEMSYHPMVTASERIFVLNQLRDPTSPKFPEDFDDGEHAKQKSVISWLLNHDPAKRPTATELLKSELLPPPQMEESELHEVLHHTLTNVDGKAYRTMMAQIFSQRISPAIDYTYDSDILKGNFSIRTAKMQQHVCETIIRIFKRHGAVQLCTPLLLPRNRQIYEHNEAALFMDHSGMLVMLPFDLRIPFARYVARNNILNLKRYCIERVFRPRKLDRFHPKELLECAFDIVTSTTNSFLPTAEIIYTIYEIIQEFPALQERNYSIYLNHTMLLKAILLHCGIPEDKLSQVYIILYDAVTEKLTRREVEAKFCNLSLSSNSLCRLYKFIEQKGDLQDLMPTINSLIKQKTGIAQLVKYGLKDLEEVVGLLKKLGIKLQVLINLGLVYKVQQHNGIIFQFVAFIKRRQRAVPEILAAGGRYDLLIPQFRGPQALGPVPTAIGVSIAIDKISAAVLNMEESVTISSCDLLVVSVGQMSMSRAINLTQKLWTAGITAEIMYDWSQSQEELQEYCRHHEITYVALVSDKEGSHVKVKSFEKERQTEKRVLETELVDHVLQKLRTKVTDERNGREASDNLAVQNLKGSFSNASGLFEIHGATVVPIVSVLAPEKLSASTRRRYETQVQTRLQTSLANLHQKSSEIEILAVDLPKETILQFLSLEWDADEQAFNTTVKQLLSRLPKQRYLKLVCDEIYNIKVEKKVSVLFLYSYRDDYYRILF
- Measurement Notes: General control nonderepressible 2 (GCN2) inhibitory capacity, 33P-ATP filter assay
- Assay Context: recombinant human GCN2, 70 uM [gamma-33P-ATP], 40 minutes, room temperature
pIC50: −log10 of the molar value.

Would you mind telling me what pIC50 value was observed for "Cn1c(=O)c(-c2c(F)ccc(NS(=O)(=O)c3cc(Cl)ccc3Cl)c2F)cc2cnc(N)nc21" ?
> 7.00

Try this compound next: "Cc1nn(-c2c(F)ccc(NS(=O)(=O)c3cc(Cl)cc(CO)c3Cl)c2F)c(=O)c2cnc(N)nc12"
< 6.00

Likewise for "COc1ncc(Cl)cc1S(=O)(=O)Nc1ccc(F)c(-n2c(=O)c3cnc(N)nc3n(C)c2=O)c1F" ?
6.52 to 7.00

Okay, and "Cn1c(=O)n(-c2c(F)ccc(NS(=O)(=O)c3cccc4ccccc34)c2F)c(=O)c2cnc(N)nc21" ?
6.52 to 7.00

"Cn1c(=O)c(-c2c(F)ccc(NS(=O)(=O)c3c(Cl)nc4sccn34)c2F)cc2cnc(N)nc21" , same question.
6.00 to 6.52

Do the same for "Cn1ccc2c(S(=O)(=O)Nc3ccc(F)c(-c4cc5cnc(N)nc5n(C)c4=O)c3F)cccc21" please
6.52 to 7.00

Also "COc1ncc(Cl)cc1S(=O)(=O)Nc1ccc(F)c(-n2cc(C(F)F)c3nc(N)ncc3c2=O)c1F" , if possible.
> 7.00

Repeat for the following compound: "Cn1c(=O)c(-c2c(F)ccc(NS(=O)(=O)c3cccnc3Cl)c2F)cc2cnc(N)nc21"
6.52 to 7.00

---

- System Tested: recombinant human GCN2 protein (Homo sapiens)
- Measurement Notes: General control nonderepressible 2 (GCN2) inhibitory capacity, 33P-ATP filter assay
- Type: biochemical
- Assay Context: recombinant human GCN2, 70 uM [gamma-33P-ATP], 40 minutes, room temperature
Outcome Measure: IC50

Could you share which IC50 value was measured for CNc1ncc2cc(-c3c(F)ccc(NS(=O)(=O)c4cc(Cl)ccc4Cl)c3F)c(=O)n(C)c2n1 [Example 20] ?
100 to 300 nM

Also check Nc1ncc2c(=O)n(-c3c(F)ccc(NS(=O)(=O)c4cc(Cl)cnc4Cl)c3F)ccc2n1 [Example 27]
< 100 nM

# iterate: Nc1ncc2c(=O)n(-c3c(F)ccc(NS(=O)(=O)c4cccc5ccccc45)c3F)ccc2n1 [Example 29]
< 100 nM

Moving on to COc1ncc(C#N)cc1S(=O)(=O)Nc1ccc(F)c(-n2ccc3nc(N)ncc3c2=O)c1F [Example 28]
< 100 nM

Item: COc1ncc(Br)cc1S(=O)(=O)Nc1ccc(F)c(-n2c(=O)c3cnc(N)nc3n(C)c2=O)c1F [Example 46]
< 100 nM

***
What measured IC50 goes with Cc1c(S(=O)(=O)Nc2ccc(F)c(-c3cc4cnc(N)nc4n(C)c3=O)c2F)c(Cl)nn1C [Example 9] ?
300 to 1000 nM

# iterate: CN1CN(c2c(F)ccc(NS(=O)(=O)c3cc(Cl)ccc3Cl)c2F)C(=O)c2cnc(N)nc21 [Example 39]
100 to 300 nM

And for Nc1ncc2c(n1)N(C1CC1)CN(c1c(F)ccc(NS(=O)(=O)c3cccc4ccccc34)c1F)C2=O [Example 61] ?
100 to 300 nM

Try the compound Nc1ncc2c(n1)N(C1CC1)CN(c1c(F)ccc(NS(=O)(=O)c3cc(Cl)ccc3Cl)c1F)C2=O [Example 59]
100 to 300 nM

Moving on to the next compound: Cc1c(S(=O)(=O)Nc2ccc(F)c(-c3cc4cnc(N)nc4n(C)c3=O)c2F)c(CO)nn1C [Example 10]
> 1000 nM

Would you mind doing Cn1c(=O)n(-c2c(F)ccc(NS(=O)(=O)c3cc(F)ccc3F)c2F)c(=O)c2cnc(N)nc21 [Example 54] as well?
100 to 300 nM

Okay, and Cn1c(=O)c(-c2c(F)ccc(NS(=O)(=O)c3cccc4ccccc34)c2F)cc2cnc(N)nc21 [Example 16] ?
100 to 300 nM

Same again, this time with CNc1ncc2c(=O)n(-c3c(F)ccc(NS(=O)(=O)c4cc(Cl)cnc4OC)c3F)ccc2n1 [Example 32]
< 100 nM

Now give it for CN1CN(c2c(F)ccc(NS(=O)(=O)c3cccc4ccccc34)c2F)C(=O)c2cnc(N)nc21 [Example 41] too.
100 to 300 nM

And then Cc1nn(C)c(Cl)c1S(=O)(=O)Nc1ccc(F)c(-c2cc3cnc(N)nc3n(C)c2=O)c1F [Example 2] , what is it?
> 1000 nM

---

- System Tested: recombinant human GCN2 protein (Homo sapiens, UniProt Q9P2K8)
- Measurement Notes: General control nonderepressible 2 (GCN2) inhibitory capacity, 33P-ATP filter assay
- Assay Context: recombinant human GCN2, 70 uM [gamma-33P-ATP], 40 minutes, room temperature
pIC50: −log10 of the molar value.
Outcome Measure: pIC50

Completed entries (count: 8):
Given the entry "COc1ncc(Cl)cc1S(=O)(=O)Nc1ccc(F)c(-n2cc(CO)c3nc(N)ncc3c2=O)c1F" , what pIC50 was observed with recombinant human GCN2 protein (Homo sapiens, UniProt Q9P2K8)?
6.52 to 7.00

Can you check "Cc1noc(C)c1S(=O)(=O)Nc1ccc(F)c(-c2cc3cnc(N)nc3n(C)c2=O)c1F" next?
6.52 to 7.00

Further, for "Cc1nn(C)c(Cl)c1S(=O)(=O)Nc1ccc(F)c(-n2ccc3nc(N)ncc3c2=O)c1F" ?
6.52 to 7.00

Try "COc1ncc(Cl)cc1S(=O)(=O)Nc1ccc(F)c(N2CN(C)c3nc(N)ncc3C2=O)c1F" next.
6.52 to 7.00

Then "Cn1c(=O)n(-c2c(F)ccc(NS(=O)(=O)c3cc(Cl)cnc3Cl)c2F)c(=O)c2cnc(N)nc21" ?
> 7.00

Further, for "CN1C(=O)Cc2cc(S(=O)(=O)Nc3ccc(F)c(-n4c(=O)c5cnc(N)nc5n(C)c4=O)c3F)ccc21" ?
< 6.00

Also "Cc1nn(-c2c(F)ccc(NS(=O)(=O)c3cc(Cl)ccc3Cl)c2F)c(=O)c2cnc(N)nc12" , if possible.
> 7.00

Next record, please: "Cc1nn(-c2c(F)ccc(NS(=O)(=O)c3cn(C)nc3C(F)(F)F)c2F)c(=O)c2cnc(N)nc12"
< 6.00

Now consider a different molecule.
Item "COc1ncc(Cl)cc1S(=O)(=O)Nc1ccc(F)c(-n2cc(Br)c3nc(N)ncc3c2=O)c1F" with recombinant human GCN2 protein (Homo sapiens, UniProt Q9P2K8) - pIC50?
< 6.00

---

- System Tested: recombinant human PERK protein (Homo sapiens, UniProt Q9NZJ5)
- Sequence (Q9NZJ5 30-1116): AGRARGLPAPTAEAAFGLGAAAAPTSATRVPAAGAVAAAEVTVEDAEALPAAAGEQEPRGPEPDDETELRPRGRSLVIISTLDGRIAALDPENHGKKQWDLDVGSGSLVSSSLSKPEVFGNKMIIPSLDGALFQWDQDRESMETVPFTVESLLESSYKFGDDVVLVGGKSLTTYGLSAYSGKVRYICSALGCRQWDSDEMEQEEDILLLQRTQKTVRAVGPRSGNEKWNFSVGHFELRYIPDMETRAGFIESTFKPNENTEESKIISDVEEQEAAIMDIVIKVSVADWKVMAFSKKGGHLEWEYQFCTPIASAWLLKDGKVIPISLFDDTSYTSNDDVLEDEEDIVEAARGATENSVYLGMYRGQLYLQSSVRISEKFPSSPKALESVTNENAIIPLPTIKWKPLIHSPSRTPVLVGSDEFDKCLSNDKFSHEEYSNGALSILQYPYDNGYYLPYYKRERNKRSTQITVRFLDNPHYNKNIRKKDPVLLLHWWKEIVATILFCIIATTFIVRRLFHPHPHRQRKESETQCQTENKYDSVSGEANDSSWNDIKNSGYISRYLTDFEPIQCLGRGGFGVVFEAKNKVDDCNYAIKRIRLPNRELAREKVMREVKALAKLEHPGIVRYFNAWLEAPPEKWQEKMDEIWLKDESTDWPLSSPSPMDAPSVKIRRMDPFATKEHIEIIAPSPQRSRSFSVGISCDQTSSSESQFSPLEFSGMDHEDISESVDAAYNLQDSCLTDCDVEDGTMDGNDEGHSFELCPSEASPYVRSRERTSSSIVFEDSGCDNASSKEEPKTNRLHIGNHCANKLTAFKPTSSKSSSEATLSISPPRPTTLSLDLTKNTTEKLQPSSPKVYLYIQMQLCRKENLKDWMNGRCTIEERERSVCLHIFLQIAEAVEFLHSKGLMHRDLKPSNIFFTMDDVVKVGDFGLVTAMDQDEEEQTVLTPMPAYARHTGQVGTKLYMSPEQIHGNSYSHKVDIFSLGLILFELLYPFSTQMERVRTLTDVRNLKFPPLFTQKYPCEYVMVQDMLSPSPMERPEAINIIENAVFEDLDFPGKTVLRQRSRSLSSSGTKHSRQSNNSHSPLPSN
- Measurement Notes: PKR-like endoplasmic reticulum kinase (PERK) inhibitory capacity, 33P-ATP filter assay
- Assay Context: 15 uM [gamma-33P-ATP], 40 minutes, room temperature
Outcome Measure: IC50

Past entries and their recorded results:
Param item = "Cn1c(=O)c(-c2c(F)ccc(NS(=O)(=O)c3ccc(Cl)s3)c2F)cc2cnc(N)nc21" ; retrieve measured IC50.
< 100 nM

What do we get for "Cc1nn(C)c(C)c1S(=O)(=O)Nc1ccc(F)c(-c2cc3cnc(N)nc3n(C)c2=O)c1F" ?
> 1000 nM

Okay, and "COc1ncc(Br)cc1S(=O)(=O)Nc1ccc(F)c(-n2c(=O)c3cnc(N)nc3n(C)c2=O)c1F" ?
< 100 nM

Also "Cc1nn(C(F)F)c(C)c1S(=O)(=O)Nc1ccc(F)c(-c2cc3cnc(N)nc3n(C)c2=O)c1F" , if possible.
> 1000 nM

Item: "Cn1ccc2c(S(=O)(=O)Nc3ccc(F)c(-c4cc5cnc(N)nc5n(C)c4=O)c3F)cccc21"
< 100 nM

What about this molecule? "Nc1ncc2c(=O)n(-c3c(F)ccc(NS(=O)(=O)c4cccc5ccccc45)c3F)ccc2n1"
< 100 nM

What do you get for "Cc1nn(C)c(C(F)(F)F)c1S(=O)(=O)Nc1ccc(F)c(-c2cc3cnc(N)nc3n(C)c2=O)c1F" ?
300 to 1000 nM

Next record, please: "COc1ncc(C#N)cc1S(=O)(=O)Nc1ccc(F)c(-n2ccc3nc(N)ncc3c2=O)c1F"
< 100 nM

More entries:
Endpoint output: IC50 of "Cn1cc(S(=O)(=O)Nc2ccc(F)c(-c3cc4cnc(N)nc4n(C)c3=O)c2F)c(C(F)(F)F)n1" . Value?
100 to 300 nM

Request: "Cc1noc(C)c1S(=O)(=O)Nc1ccc(F)c(-c2cc3cnc(N)nc3n(C)c2=O)c1F"
300 to 1000 nM

Same thing, different molecule: "Cn1c(=O)c(-c2c(F)ccc(NS(=O)(=O)c3ccc(Cl)nc3)c2F)cc2cnc(N)nc21"
> 1000 nM

What do you get for "CNc1ncc2c(=O)n(-c3c(F)ccc(NS(=O)(=O)c4cc(Cl)cnc4OC)c3F)ccc2n1" ?
< 100 nM

// next record "Cc1c(S(=O)(=O)Nc2ccc(F)c(-c3cc4cnc(N)nc4n(C)c3=O)c2F)c(Cl)nn1C"
> 1000 nM

Origin of values: patent US20260184706A1
